System: Mus musculus
test-summary: Anticonvulsant activity in po dosed STD-dd mouse assessed as protection against hind-limb extensor component of maximal electroshock seizure administered via gavage measured 2 hrs after drug dosing
Format: functional
Field: label. Allowed values: y (ED50 < 30 mg/kg) or n (ED50 >= 30 mg/kg).

NS(=O)(=O)Cc1noc2ccc(Br)cc12 = y
NS(=O)(=O)Cc1noc2cc(F)ccc12 = y
O=S(=O)(Cc1noc2ccccc12)NO = n
NS(=O)(=O)CCc1noc2ccccc12 = y
NS(=O)(=O)Cc1noc2ccc(F)cc12 = y
CN(C)S(=O)(=O)Cc1noc2ccc(Br)cc12 = n

Prompt: Please determine if `CC(C)NS(=O)(=O)Cc1noc2ccccc12` is below 30 mg/kg in terms of ED50.
Completion: n

Prompt: Please determine if `CC(C)NS(=O)(=O)Cc1noc2ccc(F)cc12` is below 30 mg/kg in terms of ED50.
Completion: n

Prompt: Please determine if `CCC1(CC)C(=O)NC(=O)N(C)C1=O` is below 30 mg/kg in terms of ED50.
Completion: n

Prompt: Please determine if `CC(C)NS(=O)(=O)Cc1noc2ccc(Br)cc12` is below 30 mg/kg in terms of ED50.
Completion: y

Prompt: Please determine if `CNS(=O)(=O)Cc1noc2ccc(Br)cc12` is below 30 mg/kg in terms of ED50.
Completion: y

Prompt: Please determine if `CN(C)S(=O)(=O)Cc1noc2ccc(Cl)cc12` is below 30 mg/kg in terms of ED50.
Completion: n

Prompt: Please determine if `NS(=O)(=O)Cc1noc2ccc(Cl)cc12` is below 30 mg/kg in terms of ED50.
Completion: y
